These data points were gathered from patent US7968558B2.

- Test system: mechanical hyperalgesia associated with STZ-induced diabetes
- assay procedure: STZ-induced diabetes mechanical hyperalgesia (neuropathic pain)
- Assay type: in vivo, rat
- measurement conditions: 30 mg/Kg i.p.; 3 hrs.
Counter-ions that a name gives are not always drawn.
For each of the compounds below, state its MPE 3 hrs..
The number alone won't do; follow it with the unit.

Give MPE 3 hrs. for COc1cccc(C2(O)CCCCC2CN(C)C)c1 (stereo not shown) [Tramadol, reference compound] tested on mechanical hyperalgesia associated with STZ-induced diabetes. 23%

Give MPE 3 hrs. for `CC(=N)Nc1ccc2nc(-c3ccc4c(c3)OCO4)ncc2c1` tested on mechanical hyperalgesia associated with STZ-induced diabetes. 101%

Give MPE 3 hrs. for CN(C)CCC=C1c2ccccc2CCc2ccccc21 [Amitriptyline, reference compound] tested on mechanical hyperalgesia associated with STZ-induced diabetes. 23%

Give MPE 3 hrs. for CC(=N)Nc1ccc2nc(-c3ccc4c(c3)OCO4)ccc2c1 [Example 2, dihydrochloride] tested on mechanical hyperalgesia associated with STZ-induced diabetes. 93%

###

- Test system: IL-1β induced PGE2 production
- assay procedure: PGE2 production induced by IL-1β in chondrocyte cell culture
- Assay type: cell-based, rabbit
- measurement conditions: Oryctolagus cuniculus, Chondrocyte, read-out: Effects on PGE2 production in rabbit Chondrocyte culture, IC50
readout label: pIC50
Scale: pIC50 equals -log10([C]), with [C] in mol/L.

Specify pIC50 for `CC(=N)Nc1ccc2nc(-c3ccc4c(c3)OCO4)ncc2c1` and stop. 5.39

###

For each of the compounds below, state its MPE 0.5 hrs..
- Tested on: CFA-induced hyperalgesia
- assay procedure: CFA model of chronic inflammatory pain
- Type: in vivo, rat
- measurement conditions: 30 mg/Kg i.p.; 0.5 hrs.
Counter-ions that a name gives are not always drawn.
Report only the number, with the unit % understood.

Specify MPE 0.5 hrs. for `CC(=N)Nc1ccc2nc(-c3ccc4c(c3)OCO4)ncc2c1` and stop. 418

Specify MPE 0.5 hrs. for CC(=N)Nc1ccc2nc(-c3ccc4c(c3)CCO4)ncc2c1 [Example 4, dihydrochloride hemihydrate] and stop. 243

Specify MPE 0.5 hrs. for CC(=N)Nc1ccc2nc(-c3ccc4c(c3)OCO4)ccc2c1 [Example 2, dihydrochloride] and stop. 188

Specify MPE 0.5 hrs. for CN1C(C(=O)Nc2ccccn2)=C(O)c2ccccc2S1(=O)=O [Piroxicam, reference compound] and stop. 102

###

For each of the molecules below, state its MPE 0.5 hrs..
- Test system: mechanical hyperalgesia associated with STZ-induced diabetes
- assay procedure: STZ-induced diabetes mechanical hyperalgesia (neuropathic pain)
- Format: in vivo, rat
- measurement conditions: 3 mg/Kg i.p.; 0.5 hrs.
Where a name gives a salt, the structure may show the parent alone.
Report only the number, with the unit % understood.

Give MPE 0.5 hrs. for CC(=N)Nc1ccc2nc(-c3ccc4c(c3)OCO4)ccc2c1 [Example 2, dihydrochloride] tested on mechanical hyperalgesia associated with STZ-induced diabetes. 32

Give MPE 0.5 hrs. for `CC(=N)Nc1ccc2nc(-c3ccc4c(c3)OCO4)ncc2c1` tested on mechanical hyperalgesia associated with STZ-induced diabetes. 15

Give MPE 0.5 hrs. for CN(C)CCC=C1c2ccccc2CCc2ccccc21 [Amitriptyline, reference compound] tested on mechanical hyperalgesia associated with STZ-induced diabetes. 44

Give MPE 0.5 hrs. for COc1cccc(C2(O)CCCCC2CN(C)C)c1 (centres unmarked) [Tramadol, reference compound] tested on mechanical hyperalgesia associated with STZ-induced diabetes. 26

Give MPE 0.5 hrs. for CC(=N)Nc1ccc2nc(-c3ccc4c(c3)CCO4)ncc2c1 [Example 4, dihydrochloride hemihydrate] tested on mechanical hyperalgesia associated with STZ-induced diabetes. 56
